Values were extracted from patent US20260297129A1.

Experiment: Solubility of peptide compounds in buffer formulations (Table 5)
Assay type: physicochemical
Conditions: aqueous buffer; 50 mM phosphate buffer pH 7.4, 2 h agitation, target 1 mg/ml; read-out: Solubility, Buffer pH 7.4
Numbered stars: 1 amine (or outer) side, 2 acyl side, 3 side chain; on linkers, the order of the positions; unused ones are H or OH. Bridge positions count the residues as written; N and C are the ends. Square brackets hold non-standard residues; d marks the D form. Peptide text beside a SMILES is read from it. * marks the point of attachment. Trp(7-Me) = Cc1cccc2c(C[C@H](N)C(=O)O)c[nH]c12; NH(CH2)9CO = O=C(CCCCCCCCCN[*:1])[*:2]; 2Nal = N[C@@H](Cc1ccc2ccccc2c1)C(=O)O; 3Pal = N[C@@H](Cc1cccnc1)C(=O)O; Aun = NCCCCCCCCCCC(=O)O; Thp = NC1(C(=O)O)CCOCC1; Me2NCH2CH2 = CN(C)CC*; Aib = CC(C)(N)C(=O)O; Sar = CNCC(=O)O
readout-kind: solubility at 2 h (µg/mL)
Value expressed in µg/mL; do not type the unit.

**Q:** Looking for the measured solubility at 2 h of Cc1cccc2c(C[C@@H]3NC(=O)CCCCCCCCCNC(=O)CC[C@@H](C(=O)N[C@@H](CC(N)=O)C(=O)N[C@@H](Cc4cccnc4)C(=O)N(C)CC(N)=O)NC(=O)C(C)(C)NC(=O)[C@H](Cc4ccc5ccccc5c4)NC(=O)[C@H](Cc4ccc(OCCN(C)C)cc4)NC(=O)C4(CCOCC4)NC(=O)[C@H](CCC(N)=O)NC3=O)c[nH]c12 [compound 5] ([NH(CH2)9CO][Trp(7-Me)]Q[Thp]Y(Me2NCH2CH2)[2Nal][Aib]EN[3Pal][Sar]-NH2; lactam N-8) , can you help?
**A:** 170

**Q:** Looking for the measured solubility at 2 h of Cc1cccc2c(C[C@@H]3NC(=O)CCCCCCCCCCNC(=O)CC[C@@H](C(=O)N[C@@H](CC(N)=O)C(=O)N[C@@H](Cc4cccnc4)C(=O)N(C)CC(N)=O)NC(=O)C(C)(C)NC(=O)[C@H](Cc4ccc5ccccc5c4)NC(=O)[C@H](Cc4ccc(OCCN(C)C)cc4)NC(=O)C(C)(C)NC(=O)[C@H](CCC(N)=O)NC3=O)c[nH]c12 [compound 35] ([Aun][Trp(7-Me)]Q[Aib]Y(Me2NCH2CH2)[2Nal][Aib]EN[3Pal][Sar]-NH2; lactam N-8) , can you help?
**A:** 40

====

Assay: Solubility of peptide compounds in buffer formulations (Table 5)
Assay type: physicochemical
Conditions: Buffer pH 1.1 (head; method: 50 mM HCl pH 1.2), 2 h agitation, target 1 mg/ml; read-out: Solubility, Buffer pH 1.1
Numbered stars: 1 amine (or outer) side, 2 acyl side, 3 side chain; on linkers, the order of the positions; unused ones are H or OH. Bridge positions count the residues as written; N and C are the ends. Square brackets hold non-standard residues; d marks the D form. Peptide text beside a SMILES is read from it. * marks the point of attachment. Trp(7-Me) = Cc1cccc2c(C[C@H](N)C(=O)O)c[nH]c12; Sebacoyl = O=C(CCCCCCCCC(=O)[*:2])[*:1]; 2Nal = N[C@@H](Cc1ccc2ccccc2c1)C(=O)O; 3Pal = N[C@@H](Cc1cccnc1)C(=O)O; Lys(Me) = CNCCCC[C@H](N)C(=O)O; Thp = NC1(C(=O)O)CCOCC1; Me2NCH2CH2 = CN(C)CC*; Aib = CC(C)(N)C(=O)O; Sar = CNCC(=O)O
readout-kind: solubility at 2 h

**Q:** Looking for the measured solubility at 2 h of Cc1cccc2c(C[C@@H]3NC(=O)CCCCCCCCC(=O)N(C)CCCC[C@@H](C(=O)N[C@@H](CC(N)=O)C(=O)N[C@@H](Cc4cccnc4)C(=O)N(C)CC(N)=O)NC(=O)C(C)(C)NC(=O)[C@H](Cc4ccc5ccccc5c4)NC(=O)[C@H](Cc4ccc(OCCN(C)C)cc4)NC(=O)C4(CCOCC4)NC(=O)[C@H](CCC(N)=O)NC3=O)c[nH]c12 [compound 19] ([Trp(7-Me)]Q[Thp]Y(Me2NCH2CH2)[2Nal][Aib][Lys(Me)]N[3Pal][Sar]-NH2; linker N-7 via Sebacoyl) , can you help?
**A:** ≥ 1390 µg/mL

====

Experiment: Protease stability in simulated intestinal fluids (FaSSIF) (Table 7)
Type: in vitro ADME
Details: fassif with pancreatin, 120 min, 37° C., read-out: Remaining percentage of peptide compound, FaSSIF 120 (min)
Numbered stars: 1 amine (or outer) side, 2 acyl side, 3 side chain; on linkers, the order of the positions; unused ones are H or OH. Bridge positions count the residues as written; N and C are the ends. Square brackets hold non-standard residues; d marks the D form. Peptide text beside a SMILES is read from it. * marks the point of attachment. Lys(Me,(CH2)4NMe(CH2)5CO) = CN(CCCCCC(=O)[*:3])CCCCN(C)CCCC[C@H](N[*:1])C(=O)[*:2]; Lys(Me,(CH2)4NMe(CH2)4CO) = CN(CCCCC(=O)[*:3])CCCCN(C)CCCC[C@H](N[*:1])C(=O)[*:2]; Trp(7-Me) = Cc1cccc2c(C[C@H](N)C(=O)O)c[nH]c12; 2Nal = N[C@@H](Cc1ccc2ccccc2c1)C(=O)O; 3Pal = N[C@@H](Cc1cccnc1)C(=O)O; 12Ado = NCCCCCCCCCCCC(=O)O; Thp = NC1(C(=O)O)CCOCC1; Me2NCH2CH2 = CN(C)CC*; Aib = CC(C)(N)C(=O)O; Sar = CNCC(=O)O
readout-kind: remaining at 2 h, 1 µM (%)
Value expressed in %; do not type the unit.

Some compounds with recorded remaining at 2 h, 1 µM:
Cc1cccc2c(C[C@@H]3NC(=O)CCCCCCCCCCCNC(=O)CC[C@@H](C(=O)N[C@@H](CC(N)=O)C(=O)N[C@@H](Cc4cccnc4)C(=O)N(C)CC(N)=O)NC(=O)C(C)(C)NC(=O)[C@H](Cc4ccc5ccccc5c4)NC(=O)[C@H](Cc4ccc(OCCN(C)C)cc4)NC(=O)C4(CCOCC4)NC(=O)[C@H](CCC(N)=O)NC3=O)c[nH]c12 [compound 2] ([12Ado][Trp(7-Me)]Q[Thp]Y(Me2NCH2CH2)[2Nal][Aib]EN[3Pal][Sar]-NH2; lactam N-8)
94
Cc1cccc2c(C[C@@H]3NC(=O)CCCCN(C)CCCCN(C)CCCC[C@@H](C(=O)NCC(=O)N[C@@H](Cc4cccnc4)C(=O)N(C)CC(N)=O)NC(=O)C(C)(C)NC(=O)[C@H](Cc4ccc5ccccc5c4)NC(=O)[C@H](Cc4ccc(OCCN(C)C)cc4)NC(=O)C4(CCOCC4)NC(=O)[C@H](CCC(N)=O)NC3=O)c[nH]c12 [compound 28] ([Trp(7-Me)]Q[Thp]Y(Me2NCH2CH2)[2Nal][Aib][Lys(Me,(CH2)4NMe(CH2)4CO)]G[3Pal][Sar]-NH2; lactam N-7)
98
Cc1cccc2c(C[C@@H]3NC(=O)CCCCCN(C)CCCCN(C)CCCC[C@@H](C(=O)N[C@@H](CC(N)=O)C(=O)N[C@@H](Cc4cccnc4)C(=O)N(C)CC(N)=O)NC(=O)C(C)(C)NC(=O)[C@H](Cc4ccc5ccccc5c4)NC(=O)[C@H](Cc4ccc(OCCN(C)C)cc4)NC(=O)C4(CCOCC4)NC(=O)[C@H](CCC(N)=O)NC3=O)c[nH]c12 [compound 31] ([Trp(7-Me)]Q[Thp]Y(Me2NCH2CH2)[2Nal][Aib][Lys(Me,(CH2)4NMe(CH2)5CO)]N[3Pal][Sar]-NH2; lactam N-7)
91

Please look at the following compound next.
**Q:** Looking for the measured remaining at 2 h, 1 µM of CC(=O)NCCCC[C@@H]1NC(=O)[C@H](Cc2c[nH]c3c(C)cccc23)NC(=O)CCCCCN(C)CCCCN(C)CCCC[C@@H](C(=O)NCC(=O)N[C@@H](Cc2cccnc2)C(=O)N(C)CC(N)=O)NC(=O)C(C)(C)NC(=O)[C@H](Cc2ccc3ccccc3c2)NC(=O)[C@H](Cc2ccc(OCCN(C)C)cc2)NC(=O)C2(CCOCC2)NC1=O [compound 27] ([Trp(7-Me)]K(Ac)[Thp]Y(Me2NCH2CH2)[2Nal][Aib][Lys(Me,(CH2)4NMe(CH2)5CO)]G[3Pal][Sar]-NH2; lactam N-7) , can you help?
**A:** 94

====

Assay: Chemical stability (relative purity loss) of peptide compounds in buffer formulations (Table 6)
Format: physicochemical
Details: 50 mM phosphate buffer pH 7.4 + acetonitrile (3:1), 2° C. and 37° C., read-out: Chemical stability (relative purity loss), Buffer pH 7.4
Numbered stars: 1 amine (or outer) side, 2 acyl side, 3 side chain; on linkers, the order of the positions; unused ones are H or OH. Bridge positions count the residues as written; N and C are the ends. Square brackets hold non-standard residues; d marks the D form. Peptide text beside a SMILES is read from it. * marks the point of attachment. Lys(Me,(CH2)4NMe(CH2)5CO) = CN(CCCCCC(=O)[*:3])CCCCN(C)CCCC[C@H](N[*:1])C(=O)[*:2]; Trp(7-Me) = Cc1cccc2c(C[C@H](N)C(=O)O)c[nH]c12; 2Nal = N[C@@H](Cc1ccc2ccccc2c1)C(=O)O; Suberoyl = O=C(CCCCCCC(=O)[*:2])[*:1]; 3Pal = N[C@@H](Cc1cccnc1)C(=O)O; Thp = NC1(C(=O)O)CCOCC1; Me2NCH2CH2 = CN(C)CC*; Aib = CC(C)(N)C(=O)O; Sar = CNCC(=O)O
readout-kind: degraded at 24 h (%)
Value expressed in %; do not type the unit.

Cc1cccc2c(C[C@@H]3NC(=O)CCCCCCC(=O)NCCCC[C@@H](C(=O)N[C@@H](CC(N)=O)C(=O)N[C@@H](Cc4cccnc4)C(=O)N(C)CC(N)=O)NC(=O)C(C)(C)NC(=O)[C@H](Cc4ccc5ccccc5c4)NC(=O)[C@H](Cc4ccc(OCCN(C)C)cc4)NC(=O)C4(CCOCC4)NC(=O)[C@H](CCC(N)=O)NC3=O)c[nH]c12 [compound 12] ([Trp(7-Me)]Q[Thp]Y(Me2NCH2CH2)[2Nal][Aib]KN[3Pal][Sar]-NH2; linker N-7 via Suberoyl)
0

**Q:** Looking for the measured degraded at 24 h of CC(=O)NCCCC[C@@H]1NC(=O)[C@H](Cc2c[nH]c3c(C)cccc23)NC(=O)CCCCCN(C)CCCCN(C)CCCC[C@@H](C(=O)N[C@@H](CC(N)=O)C(=O)N[C@@H](Cc2cccnc2)C(=O)N(C)CC(N)=O)NC(=O)C(C)(C)NC(=O)[C@H](Cc2ccc3ccccc3c2)NC(=O)[C@H](Cc2ccc(OCCN(C)C)cc2)NC(=O)C2(CCOCC2)NC1=O [compound 18] ([Trp(7-Me)]K(Ac)[Thp]Y(Me2NCH2CH2)[2Nal][Aib][Lys(Me,(CH2)4NMe(CH2)5CO)]N[3Pal][Sar]-NH2; lactam N-7) , can you help?
**A:** 0
